MIC by entry:
System: Pseudomonas aeruginosa ATCC 27853
Assay type: cell-based
Conditions: ATCC 27853
Protocol: The minimal inhibitory concentration (MIC) was determined by the broth microdilution method according to the recommended procedures of the Clinical and Laboratory Standards Institute (CLSI). An appropriate amount of the cyclic lipopeptide compounds prepared in Examples 1-120 and the reference standards were weighed and dissolved in sterile pure water. […]
Bridge positions count the residues as written; N and C are the ends. Square brackets hold non-standard residues; d marks the D form. Peptide text beside a SMILES is read from it. * marks the point of attachment. Dab(CH2SO3H) = N[C@@H](CCNCS(=O)(=O)O)C(=O)O; Heptanoyl(6-Me) = CC(C)CCCCC(=O)*; dOrn = NCCC[C@@H](N)C(=O)O; Nonanoyl = CCCCCCCCC(=O)*; X1 = CC[C@H](C)CCCCC(=O)*; dDab = NCC[C@@H](N)C(=O)O; Heptanoyl = CCCCCCC(=O)*; Octanoyl = CCCCCCCC(=O)*; Orn = NCCC[C@H](N)C(=O)O; Dab = NCC[C@H](N)C(=O)O; Dap = NC[C@H](N)C(=O)O
Expressed in µg/mL, but write only the number.

CC[C@H](C)CCCCC(=O)N[C@@H](CCN)C(=O)N[C@H](C(=O)N[C@H](CCCN)C(=O)N[C@H]1CCNC(=O)[C@H]([C@@H](C)O)NC(=O)[C@H](CCN)NC(=O)[C@H](CCN)NC(=O)[C@H]([C@@H](C)O)NC(=O)[C@@H](Cc2ccccc2)NC(=O)[C@H](CCN)NC1=O)[C@@H](C)O [Compound 21] (X1-[Dab]T[dOrn][Dab][Dab][dF]T[Dab][Dab]T; lactam 4-C): 0.25
CCCCCCC(=O)N[C@@H](CCN)C(=O)N[C@H](C(=O)N[C@@H](CCCN)C(=O)N[C@H]1CCNC(=O)[C@H]([C@@H](C)O)NC(=O)[C@H](CCN)NC(=O)[C@H](CCN)NC(=O)[C@H]([C@@H](C)O)NC(=O)[C@@H](Cc2ccccc2)NC(=O)[C@H](CCN)NC1=O)[C@@H](C)O [Compound 29] (Heptanoyl-[Dab]T[Orn][Dab][Dab][dF]T[Dab][Dab]T; lactam 4-C): 0.03
CC(C)CCCCC(=O)N[C@@H](CN)C(=O)N[C@H](C(=O)N[C@H](CCN)C(=O)N[C@H]1CCNC(=O)[C@H]([C@@H](C)O)NC(=O)[C@H](CCN)NC(=O)[C@H](CCN)NC(=O)[C@H](CC(C)C)NC(=O)[C@@H](Cc2ccccc2)NC(=O)[C@H](CCN)NC1=O)[C@@H](C)O [Compound 92] ({Heptanoyl(6-Me)}-[Dap]T[dDab][Dab][Dab][dF]L[Dab][Dab]T; lactam 4-C): 0.5
CC(C)CCCCC(=O)N[C@@H](CCN)C(=O)N[C@H](C(=O)N[C@H](CO)C(=O)N[C@H]1CCNC(=O)[C@H]([C@@H](C)O)NC(=O)[C@H](CCN)NC(=O)[C@H](CCNCS(=O)(=O)O)NC(=O)[C@H]([C@@H](C)O)NC(=O)[C@@H](Cc2ccccc2)NC(=O)[C@H](CCN)NC1=O)[C@@H](C)O [Compound 110] ({Heptanoyl(6-Me)}-[Dab]T[dS][Dab][Dab][dF]T[Dab(CH2SO3H)][Dab]T; lactam 4-C): 0.25
CCCCCCCC(=O)N[C@@H](CCCN)C(=O)N[C@H](C(=O)N[C@H](CO)C(=O)N[C@H]1CCNC(=O)[C@H]([C@@H](C)O)NC(=O)[C@H](CCN)NC(=O)[C@H](CCN)NC(=O)[C@H]([C@@H](C)O)NC(=O)[C@@H](Cc2ccccc2)NC(=O)[C@H](CCN)NC1=O)[C@@H](C)O [Compound 58] (Octanoyl-[Orn]T[dS][Dab][Dab][dF]T[Dab][Dab]T; lactam 4-C): 64
CC(C)CCCCC(=O)N[C@@H](CCN)C(=O)N[C@H](C(=O)N[C@H](CO)C(=O)N[C@H]1CCNC(=O)[C@H]([C@@H](C)O)NC(=O)[C@H](CCNCS(=O)(=O)O)NC(=O)[C@H](CCN)NC(=O)[C@H]([C@@H](C)O)NC(=O)[C@@H](Cc2ccccc2)NC(=O)[C@H](CCN)NC1=O)[C@@H](C)O [Compound 111] ({Heptanoyl(6-Me)}-[Dab]T[dS][Dab][Dab][dF]T[Dab][Dab(CH2SO3H)]T; lactam 4-C): 0.25
CC[C@H](C)CCCCC(=O)N[C@@H](CCN)C(=O)N[C@H](C(=O)N[C@@H](CCN)C(=O)N[C@H]1CCNC(=O)[C@H]([C@@H](C)O)NC(=O)[C@H](CCN)NC(=O)[C@H](CCN)NC(=O)[C@H]([C@@H](C)O)NC(=O)[C@@H](Cc2ccccc2)NC(=O)[C@H](CCN)NC1=O)[C@@H](C)O [Compound 16] (X1-[Dab]T[Dab][Dab][Dab][dF]T[Dab][Dab]T; lactam 4-C): 0.5

Measured MIC, CCCCCCCCC(=O)N[C@@H](CCN)C(=O)N[C@H](C(=O)N[C@H](CCN)C(=O)N[C@H]1CCNC(=O)[C@H]([C@@H](C)O)NC(=O)[C@H](CCN)NC(=O)[C@H](CCN)NC(=O)[C@H]([C@@H](C)O)NC(=O)[C@@H](Cc2ccccc2)NC(=O)[C@H](CCN)NC1=O)[C@@H](C)O [Compound 15] (Nonanoyl-[Dab]T[dDab][Dab][Dab][dF]T[Dab][Dab]T; lactam 4-C) : 2

The measured values listed here are drawn from patent EP4725957A1.
